- assay target: T1, PUF4 RNA-binding domain (Saccharomyces cerevisiae, UniProt P25339 537-888)
- T1 sequence: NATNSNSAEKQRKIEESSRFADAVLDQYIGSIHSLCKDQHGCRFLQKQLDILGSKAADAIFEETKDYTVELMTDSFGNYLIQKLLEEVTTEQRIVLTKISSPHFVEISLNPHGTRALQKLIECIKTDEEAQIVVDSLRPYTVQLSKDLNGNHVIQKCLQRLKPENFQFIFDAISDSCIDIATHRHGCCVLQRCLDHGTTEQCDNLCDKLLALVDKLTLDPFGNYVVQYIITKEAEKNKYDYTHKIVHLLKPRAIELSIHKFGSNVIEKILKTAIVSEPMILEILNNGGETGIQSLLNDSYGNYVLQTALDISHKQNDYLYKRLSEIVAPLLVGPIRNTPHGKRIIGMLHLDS
- test protocol: Mg; RNA-MaP; 20 mM Na-HEPES pH 7.4, 30 mM KOAc, 0.75 mM MgCl2, 0.1% Tween-20, 5% glycerol, 0.1 mg/mL BSA, 2 mM DTT; 25 C; 0.0125-409.6 nM protein
- particulars: tags: N-His6-TEV cleaved; C-SNAP kept, Cy3B-labelled; label: tethered on chip by stalled RNA polymerase
pKd: −log10 of the molar value.
Output YES for pKd not less than 6; output NO otherwise.

Reference set (4 entries):
binder="ACAAACUUACACUAUUAUAACAAAC (ssRNA) [Id_ii_S3_P4E.4_K4.3_C4.2_[C-2T]_H4.3_A4.1_F4.1_T4.2_[G10T]_[T11A]]" discrete_label=NO
binder="Ie_S4_P5E.1_K5.1_C5.1_H5.1_A5.1_[+5CCC]_F5.1_T5.1 (ssRNA) RNA: UUUGACAACUGAUCGUUCUUUCUUGUAUCCCUAUUAUUCUUUCUCGAUCAGUUGUCUUU" discrete_label=YES
binder="UCUCUUUGUAGCCAUUCUCUU (ssRNA) [Ic_S1_P4E.1_K4.1_C4.1_H4.1_A4.1_[T5G]_[A6C]_[T7C]_F4.1_[T8A]_[A9T]_T4.1]" discrete_label=NO
binder="UCUCUUUGUAAUAUGGUCUCUU (ssRNA) [Ic_S1_P5E.1_K5.1_C5.1_H5.1_A5.1_[T5A]_F5.1_[T9G]_[A10G]_T5.1]" discrete_label=YES

Moving on to the next binder.
Please tell me: is the binder UCUCUUUGUAUGUCACUCUCUU (ssRNA) [Ic_S1_P5E.1_K5.1_C5.1_H5.1_A5.1_[T6G]_[A7T]_F5.1_[T8C]_[T9A]_[A10C]_T5.1] at or over 6 in terms of pKd? YES
